measurement target: T1, IL-6R-Fc 항원 (IL-6R full domain 단백질) (human, UniProt P08887 20-365)
T1 construct: domain: IL-6R full domain; Expressed transiently in HEK293E and purified from the supernatant; also called IL-6R 항원; not shown: Fc part from expression vector pYK 604
T1 sequence (looked up): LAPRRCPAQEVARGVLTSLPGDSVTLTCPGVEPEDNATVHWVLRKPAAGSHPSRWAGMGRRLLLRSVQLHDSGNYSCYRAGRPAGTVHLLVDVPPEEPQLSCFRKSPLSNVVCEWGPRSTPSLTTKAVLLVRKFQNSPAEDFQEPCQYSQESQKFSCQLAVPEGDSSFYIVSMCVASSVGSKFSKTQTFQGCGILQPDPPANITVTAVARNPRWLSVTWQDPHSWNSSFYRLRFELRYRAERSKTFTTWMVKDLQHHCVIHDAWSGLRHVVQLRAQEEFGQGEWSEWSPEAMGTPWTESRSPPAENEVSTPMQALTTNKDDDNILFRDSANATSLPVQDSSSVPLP
assay overview: ELISA, coated IL-6R 100 ng/well, anti-Fab-HRP
recorded endpoint: OD 490 nm at 6.25 nM antibody (OD490)
Report the figure in OD490 without appending any unit label.

Example entries and their recorded answers appear below.
항 IL-6R 단클론 항체 B10 (IgG) (antibody, V domains shown, Phage clone converted to whole IgG) VH: QVQLVESGGGLVQPGGSLRLSCAASGFIFDDYAMFWVRQVPGKGLEWVAGINWNGNGIGYGDSVRGRFIISRDNARNSLDLQMNSLRAEDTAVYYCARPSLYGGNSEFDLWGQGTLVTVSS VL: SQLVLTQPPSVSGAPGQTVTISCTGPTIGAGYDVHWYQQLPGAAPKLLIYGNLNRPSGVPDRFSGSKSGTSASLAITDLQAEDEADYYCHTYDSSLSGSWVFGGGTKLTVL	1.04
항 IL-6R 단클론 항체 F2 (IgG) (antibody, V domains shown, Phage clone converted to whole IgG) VH: QVQLVESGAEVKKPGASVKVSCKASGYTFTNYYMHWVRQAPGQGLEWMGIINPSGGNTGYAQKFQGRVTMTRDMSTSTAYMELSSLRSEDTAVYYCARGLPWGENGLDVWGQGTTVTVSS VL: SQLVLTQPSSVSGAPGQTVTISCTGSSSNIGAGYDVHWYQQLPGTAPKVLIYGDSDRPSGVPDRFSGSKSATSASLAITGLQAEDEADYYCQSYDSSLSAYVFGTGTKVTVL	2.71

The reported OD 490 nm at 6.25 nM antibody of the binder 항 IL-6R 단클론 항체 D2 (IgG) (antibody, V domains shown, Phage clone converted to whole IgG) VH: QVQLVESGAEVKKPGSSVKVSCKGSGDTFPNYAINWVRQAPGQGPEWMGRIIPMLGTSDYAEKFQGRVTITADKSTNTAYMGLNSLRSEDTAVYYCVKGPRYYGTDSYYLEKWGQGTMVTVSS VL: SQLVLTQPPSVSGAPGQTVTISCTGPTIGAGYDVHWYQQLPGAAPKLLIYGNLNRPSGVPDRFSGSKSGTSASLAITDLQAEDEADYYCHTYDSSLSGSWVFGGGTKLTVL was 0.981

Lab note: 항 IL-6R 단클론 항체 A7 (IgG) (antibody, V domains shown, Phage clone converted to whole IgG) VH: QMQLVESGGGLVQPGTSLRLSCAASGFKFEDYAMHWVRQAPGKGLEWVSGVSWNSGTIAYVDSVKGRFTISRDNAKNSLYLQMNSLRAEDTAVYYCARDFTYFYESSGYYAFDLWGQGTMVTVSS VL: SQLVLTQPPSVSGAPGQRVTISCTGTNSNIGAGYDVHWYQQVPGTTPKLLIYGNTNRPSGVPDRFSGSKSGTSASLAITGLQAEDGGDYYCQSFDSSLTGSVFGTGTKVTVL gave OD 490 nm at 6.25 nM antibody of 2.13
